- Assay system: canine AC5 (Canis lupus, UniProt P30803)
- Sequence (P30803 whole entry): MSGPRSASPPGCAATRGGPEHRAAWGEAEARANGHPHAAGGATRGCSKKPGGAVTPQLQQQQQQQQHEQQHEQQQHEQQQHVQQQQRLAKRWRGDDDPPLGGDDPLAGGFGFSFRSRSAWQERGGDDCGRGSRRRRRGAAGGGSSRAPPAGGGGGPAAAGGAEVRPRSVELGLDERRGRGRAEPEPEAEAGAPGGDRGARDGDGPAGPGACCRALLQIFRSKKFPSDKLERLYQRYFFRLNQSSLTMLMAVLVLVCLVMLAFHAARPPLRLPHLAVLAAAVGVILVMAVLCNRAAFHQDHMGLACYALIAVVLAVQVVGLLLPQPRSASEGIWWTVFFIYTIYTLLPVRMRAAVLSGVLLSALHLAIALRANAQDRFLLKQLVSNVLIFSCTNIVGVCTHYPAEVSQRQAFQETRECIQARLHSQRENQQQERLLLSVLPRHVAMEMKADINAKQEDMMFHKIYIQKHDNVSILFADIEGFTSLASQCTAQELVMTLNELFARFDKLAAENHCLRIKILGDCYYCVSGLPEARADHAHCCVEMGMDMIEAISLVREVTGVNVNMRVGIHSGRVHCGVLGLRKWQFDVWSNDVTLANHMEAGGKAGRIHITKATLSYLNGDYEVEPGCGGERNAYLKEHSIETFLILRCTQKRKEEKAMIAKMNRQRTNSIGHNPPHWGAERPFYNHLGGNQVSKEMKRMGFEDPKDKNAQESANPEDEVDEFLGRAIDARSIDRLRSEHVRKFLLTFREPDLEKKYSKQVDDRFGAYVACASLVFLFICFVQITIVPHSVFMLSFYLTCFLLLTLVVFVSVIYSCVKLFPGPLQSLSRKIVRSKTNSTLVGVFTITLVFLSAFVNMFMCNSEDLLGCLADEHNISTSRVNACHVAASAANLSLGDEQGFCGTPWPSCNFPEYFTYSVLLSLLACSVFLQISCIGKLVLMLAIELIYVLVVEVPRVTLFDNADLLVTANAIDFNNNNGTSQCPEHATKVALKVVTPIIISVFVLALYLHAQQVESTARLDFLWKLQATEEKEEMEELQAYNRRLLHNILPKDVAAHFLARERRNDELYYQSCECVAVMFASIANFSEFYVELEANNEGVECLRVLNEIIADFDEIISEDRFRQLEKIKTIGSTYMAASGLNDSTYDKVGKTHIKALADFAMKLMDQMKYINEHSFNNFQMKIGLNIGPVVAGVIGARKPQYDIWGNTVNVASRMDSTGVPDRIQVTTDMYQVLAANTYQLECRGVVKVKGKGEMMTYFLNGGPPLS
- Protocol summary: […]cAMP formation from [alpha-32P]ATP, Sf9 membranes
- Assay type: biochemical
Quantity kind: EC50 (µM)

1. C=C[C@@]1(C)CC(=O)[C@]2(O)[C@@]3(C)[C@@H](O)CCC(C)(C)[C@@H]3[C@H](O)[C@H](OC(C)=O)[C@@]2(C)O1 [FS]
2. C=C[C@@]1(C)CC(=O)[C@]2(O)[C@@]3(C)[C@@H](O)CCC(C)(C)[C@@H]3[C@H](OC(C)=O)[C@H](O)[C@@]2(C)O1 [6A7DA-FS]
3. C=C[C@@]1(C)CC(=O)[C@H]2[C@](C)(O1)[C@@H](OC(C)=O)[C@@H](O)[C@H]1C(C)(C)CC[C@H](O)[C@@]12C [9d-FS]
Arrange the 3 compounds from largest to smallest EC50. Answer by writing out the labels in the requested order. 3, 2, 1
(3: 77.8 µM, 2: 52.1 µM, 1: 4.6 µM)
